Experiment: inhibitors of TNFa-induced NFkB p65 translocation, primary screen, imaging, HUVEC, MLSMR starter and 10KST1 sets (AID 438);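 also: compound added about 3h40 before a 20 min TNFalpha stimulation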
Conditions: HUVEC TNFa-induced p65 nuclear translocation; measured here: nuclei count (cytotoxicity indicator), at 2.08 µM
ATTRIBUTE_MEASURED: cell count

COMPOUND	cell count
CCN(CC)CCN1C(=O)c2ccccc2NC1c1cc(OC)c(OC)c(OC)c1 (stereo not given)	672
C=CCN1C(=O)CC(C(=O)NC)SC1=Nc1ccc(C(=O)OCC)cc1 (stereo not given)	634
O=C(CSc1nnc(COc2ccc(Cl)cc2)o1)N1CCN(c2ccccc2)CC1	359

Suppose we examine the compound O=C(c1ccccc1Br)N1CCN(c2ccccc2)CC1 ; what cell count value has been reported?
619

Suppose we examine the compound O=C(c1ccco1)N1CCN(C(=O)C2CC(c3ccc(F)cc3)=NO2)CC1 (stereo not given) ; what cell count value has been reported?
448

----------
Biological target: Muscarinic acetylcholine receptor M4 (Homo sapiens)
Test: compounds altering M4/GIRK thallium flux, either direction, primary screen, M4 allosteric agonist project, cell-based, HEK293 M4/GIRK, BTC-AM (AID 625);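 also: thallium influx through GIRK channels coupled to M4 in HEK293 cells with BTC-AM dye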
Settings: at 10 µM, actives lie on both sides
Note that class boundaries on fluorescence slope are low-valued (below 0.005), mid-valued (0.005 to below 0.006), high-valued (0.006 or more)

Which bin, given its fluorescence slope, does CC(=O)Nc1ccc(OC(=O)CC2SC(=O)NC2=O)cc1 (stereo not given) occupy?
mid-valued

Which bin, given its fluorescence slope, does N#CCSc1nc2c(c(=O)n1Cc1ccco1)C1(CCCC1)Cc1ccccc1-2 occupy?
high-valued

Which bin, given its fluorescence slope, does Clc1ccc(-n2ncc3c(NCc4cccs4)ncnc32)cc1 occupy?
high-valued

----------
Entries and their nuclei count values follow.
Experiment: inhibitors of mutant huntingtin aggregation, primary screen, imaging, exon1htt(103Q)mCFP cells, high-content imaging (AID 483);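 also: compound exposure lasted 3 days before fixation; percent of the per-plate median nuclei count of sample wells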
Conditions: exon1htt(103Q)mCFP cell line, aggregate imaging, at 2 µM; measured here: cell count, toxicity
The number alone won't do; follow it with the unit.

Below, each entry is followed by its recorded nuclei count result.
COMPOUND	READOUT_VALUE
CC(C)COC(=O)NCC12C=CC(O1)C1C(=O)N(c3ccc(Cl)cc3)C(=O)C12 (stereo not drawn)	104%
COC(=O)CCC(=O)Nc1cccc(Br)c1	111%

Suppose we examine the compound O=C(NC1CCCC1)c1ccc2nc[nH]c2c1 ; what nuclei count value has been reported?
101%

Suppose we examine the compound CC(C)CNS(=O)(=O)c1ccc(OCC(=O)Nc2ccc3c(c2)OCO3)c(Cl)c1 ; what nuclei count value has been reported?
81.6%

Suppose we examine the compound O=C(NC1CC1)C1CCN(c2ccc(S(=O)(=O)N3CCOCC3)cc2)CC1 ; what nuclei count value has been reported?
110%

----------
Assay: inhibitors of Sendai virus-induced IRF3 signaling, primary screen, TLR/RLR signaling modifier project, cell-based, Sendai virus stimulus, luciferase, 10K MLSCN set (AID 602276);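 also: firefly luciferase from ISG56 promoter only with Renilla not read in this screen; 0% = Sendai virus plus DMSO and 100% = medium plus DMSO without virus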
Details: HEK293 RL24 IRF3 luciferase reporter, at 10 µM, stronger effect = higher value
Entries and their inhibition values follow.
The reply should contain only the number, in %.

Suppose we examine the molecule CN(CC(=O)O)S(=O)(=O)c1cc(Cl)ccc1Cl ; what inhibition value has been reported?
-11.4

Suppose we examine the molecule O=C(CSc1nnc(CNC(=O)c2c(F)cccc2Cl)o1)c1ccccc1 ; what inhibition value has been reported?
3.28

Suppose we examine the molecule N#CC1=C(SCC(=O)NC2CCCCC2)NC(=O)CC1c1ccco1 (stereo unspecified) ; what inhibition value has been reported?
10.9

Suppose we examine the molecule CCCC(=O)Nc1c2c(nn1-c1ccc(OC)cc1)CS(=O)C2 (stereo unspecified) ; what inhibition value has been reported?
10.8

Suppose we examine the molecule CCOC(=O)N1CCN(CCC(=O)c2ccc(Cl)cc2)CC1 ; what inhibition value has been reported?
2.5

Suppose we examine the molecule CCCc1nnc(NC(=O)NCCN2C(=O)C3C4C=CC(C4)C3C2=O)s1 (stereo unspecified) ; what inhibition value has been reported?
-17.6

Suppose we examine the molecule CC(C)COC(=O)N(C)c1ccc(C(O)(C(F)(F)F)C(F)(F)F)cc1 ; what inhibition value has been reported?
-9.85

Suppose we examine the molecule Cc1onc(-c2c(Cl)cccc2Cl)c1C(=O)NCC1CCCO1 (stereo unspecified) ; what inhibition value has been reported?
-10.3

Suppose we examine the molecule CCOC(=O)C1CCN(c2c(Nc3ccc4c(c3)OCCO4)c(=O)c2=O)CC1 ; what inhibition value has been reported?
44

Suppose we examine the molecule COCCCNC(=O)c1ccccc1NS(=O)(=O)c1ccc(C)cc1 ; what inhibition value has been reported?
11.8

Suppose we examine the molecule Cc1occc1C(=O)Nc1nnc(C2CCCCC2)s1 ; what inhibition value has been reported?
-0.797

Suppose we examine the molecule CCC(=O)Nc1ccc2nc(SCC(=O)N3CCCC3)sc2c1 ; what inhibition value has been reported?
-25.3

Suppose we examine the molecule COc1ccc(C(=O)NCC(=O)NC2=NCCS2)cc1 ; what inhibition value has been reported?
5.81

Suppose we examine the molecule COc1nc(OC)nc(N2CCC(C(=O)NCc3cccs3)CC2)n1 ; what inhibition value has been reported?
-3.8

Suppose we examine the molecule CCOC(=O)N1CCN(C(=O)CSc2ncnc3ccccc23)CC1 ; what inhibition value has been reported?
1.11

Suppose we examine the molecule c1cncc(-c2nnc3n2N=C(c2cccs2)CS3)c1 ; what inhibition value has been reported?
5.28

Attribution: PubChem BioAssay
